# reported Morningglory plant response rating; entries follow
System: morningglory
Assay: Test B pre/postemergence morningglory
Assay type: in vivo, Ipomoea hederacea
Settings: Preemergence, Rate 500 g/ha; scale of 0 to 10 where 0 is no effect and 10 is complete control
endpoint: Morningglory plant response rating

In [3]: df
Out[3]:
                               smiles_input   test_target  result
0  COC(=O)CCCn1c(=O)on(C(=O)N(c2ccc(Cl)cc2)C(C)C)c1=O  morningglory       0
1  CC(C)N(C(=O)n1oc(=O)n(C2CCCCCC2)c1=O)c1ccc(F)cc1  morningglory       0
2  CC(C)N(C(=O)n1oc(=O)n(C(CF)CF)c1=O)c1ccc(F)cc1  morningglory       7
3   COCn1c(=O)on(C(=O)N(c2ccccc2)C(C)C)c1=O  morningglory       8
4  CCCCn1c(=O)on(C(=O)N(c2ccc(Cl)cc2)C(C)C)c1=O  morningglory       2
5  CCCCn1c(=O)on(C(=O)N(c2ccccc2)C(C)C)c1=O  morningglory       0

* * *

Tested on: bedstraw
Assay: Test B pre/postemergence bedstraw
Type: in vivo, Galium aparine
Settings: Postemergence, Rate 62 g/ha; scale 0 to 10, 0 is no effect, 10 is complete control
endpoint: Bedstraw plant response rating

                                   molecule  test_target  result
0  Cc1cccc(C)c1-n1c(=O)on(C(=O)N(Cc2ccccc2)C(C)C)c1=O [Compound 69]     bedstraw       0
1  Cc1onc(-c2ccccc2)c1-n1c(=O)on(C(=O)N(c2ccc(F)cc2)C(C)C)c1=O [Compound 100]     bedstraw       0
2  Cc1cccc(C(C)C)c1-n1c(=O)on(C(=O)N(c2ccccc2)C(C)C)c1=O [Compound 66]     bedstraw       0
3  CCc1ccccc1-n1c(=O)on(C(=O)N(c2ccc(F)cc2)C(C)C)c1=O [Compound 34]     bedstraw       4
4  CC(C)N(C(=O)n1oc(=O)n(-c2cc(Cl)ccc2Cl)c1=O)c1ccc(F)cc1 [Compound 16]     bedstraw       0

* * *

Tested on: surinam grass
Assay: Test B pre/postemergence surinam grass
Format: in vivo, Brachiaria decumbens
Settings: Rate 62 g/ha, Postemergence; scale of 0 to 10 where 0 is no effect and 10 is complete control
endpoint: B. signalgrass plant response rating

                                   compound    test_target  result
0  CC(C)N(C(=O)n1oc(=O)n(C(CF)CF)c1=O)c1ccccc1  surinam grass       0
1  CC(C)N(C(=O)n1oc(=O)n(CC(C)(C)C)c1=O)c1ccccc1  surinam grass       0
2   CCN(Cc1ccncc1)C(=O)n1oc(=O)n(C(C)C)c1=O  surinam grass       0
3  CC(C)N(C(=O)n1oc(=O)n(C2(C)CC2)c1=O)c1ccc(F)cc1  surinam grass       2
4  COc1ccccc1Cn1c(=O)on(C(=O)N(c2ccc(F)cc2)C(C)C)c1=O  surinam grass       0
5  CN(C(=O)n1oc(=O)n(Cc2ccccc2)c1=O)c1ccccc1  surinam grass       0
6  CC1CC1Cn1c(=O)on(C(=O)N(c2ccc(F)cc2)C(C)C)c1=O (stereo not shown)  surinam grass       0
7  Cc1nc(Cl)sc1C(C)n1c(=O)on(C(=O)N(c2ccc(F)cc2F)C(C)C)c1=O (stereo not shown)  surinam grass       0
8  C=CCn1c(=O)on(C(=O)N(c2ccc(F)cc2)C(C)C)c1=O  surinam grass       4
9  Cc1nc(C)c(-n2c(=O)on(C(=O)N(c3ccc(Cl)cc3)C(C)C)c2=O)s1  surinam grass       0

* * *

# reported Corn plant response rating; entries follow
Test system: corn
Assay: Test B pre/postemergence corn
Format: in vivo, Zea mays
Conditions: Preemergence, Rate 250 g/ha; scale of 0 to 10 where 0 is no effect and 10 is complete control
endpoint: Corn plant response rating

>>> df
                                   compound                    endpoint  result
0  CC(C)N(C(=O)n1oc(=O)n(CCc2ccccc2)c1=O)c1ccc(F)cc1 [Compound 250]  Corn plant response rating       0
1  CC(C)N(C(=O)n1oc(=O)n(C2(C)CC2)c1=O)c1ccc(F)cc1 [Compound 362]  Corn plant response rating       9
2  CC(Cl)=CCn1c(=O)on(C(=O)N(c2ccc(F)cc2)C(C)C)c1=O [Compound 285]  Corn plant response rating       0
3  CCOC(=O)C(C)N(C(=O)n1oc(=O)n(C(C)C)c1=O)c1ccc(F)cc1 (stereo not shown) [Compound 302]  Corn plant response rating       0

* * *

System: surinam grass
Assay: Test B pre/postemergence surinam grass
Type: in vivo, Brachiaria decumbens
Conditions: Postemergence, Rate 500 g/ha; scale of 0 to 10 where 0 is no effect and 10 is complete control
# reported Plant response rating, B. signalgrass; entries follow
endpoint: Plant response rating, B. signalgrass

In [3]: df
Out[3]:
                                   compound  result
0  COCCOCn1c(=O)on(C(=O)N(c2ccccc2)C(C)C)c1=O       8
1  CC(C)N(C(=O)n1oc(=O)n(COCc2ccccc2)c1=O)c1ccccc1       2
2  CCOC(=O)CC(C(=O)OCC)n1c(=O)on(C(=O)N(c2ccc(F)cc2)C(C)C)c1=O (stereo not drawn)       0
3  CC(C)N(C(=O)n1oc(=O)n(Cc2nnc(Cl)s2)c1=O)c1ccc(F)cc1       0
4  C=CCn1c(=O)on(C(=O)N(c2c(C)cccc2C)C(C)COC)c1=O (stereo not drawn)       0
5  CC(C)N(C(=O)n1oc(=O)n(Cc2nnc(Cl)s2)c1=O)c1ccc(F)cc1F       0

* * *

System: morningglory
Assay: Test B pre/postemergence morningglory
Type: in vivo, Ipomoea hederacea
Conditions: Postemergence, Rate 125 g/ha; scale of 0 to 10 where 0 is no effect and 10 is complete control
# reported Morningglory plant response rating; entries follow
endpoint: Morningglory plant response rating

In [3]: df
Out[3]:
                               smiles_input                            endpoint  result
0  CC(C)N(C(=O)n1oc(=O)n(CCCCCl)c1=O)c1ccc(F)cc1  Morningglory plant response rating       4
1  CC(C)N(C(=O)n1oc(=O)n(C(C)(C)C)c1=O)c1ccccc1  Morningglory plant response rating       4
2  C=CCn1c(=O)on(C(=O)N(c2ccc(F)cc2)C(C)C)c1=O  Morningglory plant response rating       5
3  CC(C)N(C(=O)n1oc(=O)n(Cc2ccccc2)c1=O)c1ccccc1  Morningglory plant response rating      10
4  CC(C)N(C(=O)n1oc(=O)n(N(C)c2ccccc2)c1=O)c1ccc(F)cc1  Morningglory plant response rating       0

* * *

Test system: velvetleaf
Assay: Test B pre/postemergence velvetleaf
Format: in vivo, Abutilon theophrasti
Conditions: Postemergence, Rate 62 g/ha; scale 0 to 10, 0 is no effect, 10 is complete control
endpoint: Plant response rating, Velvetleaf

                                   molecule  result
0  CCOC(Cn1c(=O)on(C(=O)N(c2ccc(Cl)cc2)C(C)C)c1=O)OCC       0
1  CC(C)N(C(=O)n1oc(=O)n(CC(=O)C2CCC2)c1=O)c1ccc(F)cc1       0
2  CC(C)N(C(=O)n1oc(=O)n(CC2=NOCCO2)c1=O)c1ccc(F)cc1       6
3  CC(C)N(C(=O)n1oc(=O)n(Cc2nnc(Cl)s2)c1=O)c1ccc(F)cc1F       0
4  CC(C)N(C(=O)n1oc(=O)n(CC(F)F)c1=O)c1ccc(Cl)cc1       0
5  COC1CCC(Cn2c(=O)on(C(=O)N(c3ccc(F)cc3)C(C)C)c2=O)=NO1 (centres unmarked)       0
6  CC(C)N(C(=O)n1oc(=O)n(Cc2nnc(Cl)s2)c1=O)c1ccc(Cl)cc1       0
7  C#CCCn1c(=O)on(C(=O)N(c2ccc(F)cc2)C(C)C)c1=O       2

* * *

System: wild oat
Experiment: Test B pre/postemergence wild oat
Format: in vivo, Avena fatua
Settings: Preemergence, Rate 62 g/ha; scale 0 to 10 (0 no effect, 10 complete control)
endpoint: Plant response rating, Wild oats

                                   compound  result
0  CC(C)N(C(=O)n1oc(=O)n(CCC(F)(F)F)c1=O)c1ccc(F)cc1       2
1  CC(C)N(C(=O)n1oc(=O)n(C2(C)CC2)c1=O)c1ccc(F)cc1       7
2  CC1CC1Cn1c(=O)on(C(=O)N(c2ccc(F)cc2)C(C)C)c1=O (centres unmarked)       1
3  C=C(C)CCn1c(=O)on(C(=O)N(c2ccccc2)C(C)C)c1=O       0
4  CC(C)N(C(=O)n1oc(=O)n(CCC#N)c1=O)c1ccccc1       0
